Target: human GLP-1 receptor (human, UniProt P43220 24-463)
Experiment: cell-based or functional assay
Bridge positions count the residues as written; N and C are the ends. Square brackets hold non-standard residues; d marks the D form. Ends that are not written are not given here. * marks the point of attachment. Acetyl(2-(4-imidazolyl)) = O=C(Cc1c[nH]cn1)*; Aib = CC(C)(N)C(=O)O
Use label 1 when the recorded In vitro activity compared to native-type peptide (%), vs GLP-1 is no lower than 20%; use label 0 when it is lower.

These solved cases illustrate the format of a correct answer.
[[record]]
binder = "H[Aib]QGTFTSDYSIAMDEIHQKDFVNWLLAQC (bridge 16-20) [triple agonist of SEQ ID NO: 55]"
category_label = "label 1"

[[record]]
binder = "Y[Aib]QGTFTSDYSKCLDERAAKEFVQWLLDHHPSSGQPPPS (bridge 16-20) [triple agonist of SEQ ID NO: 69]"
category_label = "label 1"


Given H[Aib]QGTFTSDVSKYLDGQAAQEFVAWLLKGC [triple agonist of SEQ ID NO: 8] , state whether its In vitro activity compared to native-type peptide (%), vs GLP-1 is at least 20%. label 0

Given Y[Aib]QGTFTSDYSKALDEKAAKEFVNWLLDQHPSSGQPPPSC (bridge 16-20) [triple agonist of SEQ ID NO: 101] , state whether its In vitro activity compared to native-type peptide (%), vs GLP-1 is at least 20%. label 1

Given H[Aib]QGTFTSDYSIAMDEIHQKDFVNWLLAQKC (bridge 16-20) [triple agonist of SEQ ID NO: 33] , state whether its In vitro activity compared to native-type peptide (%), vs GLP-1 is at least 20%. label 1

Given [Acetyl(2-(4-imidazolyl))]GQGTFTSDLSIQYEEEAQQDFVEWLKDTGPSSGAPPPSHG [triple agonist of SEQ ID NO: 20] , state whether its In vitro activity compared to native-type peptide (%), vs GLP-1 is at least 20%. label 0
